Target: BTK (Homo sapiens)
Sequence (Q06187 402-655 limits assumed): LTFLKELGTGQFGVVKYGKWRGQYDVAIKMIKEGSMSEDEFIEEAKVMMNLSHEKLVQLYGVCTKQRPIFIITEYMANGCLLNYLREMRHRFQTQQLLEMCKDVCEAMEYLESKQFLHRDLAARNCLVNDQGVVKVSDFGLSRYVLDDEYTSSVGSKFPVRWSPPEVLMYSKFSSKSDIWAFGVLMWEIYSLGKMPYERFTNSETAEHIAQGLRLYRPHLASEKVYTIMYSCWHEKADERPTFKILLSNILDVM
Experiment: biochemical
Settings: read-out: BTK inhibition (%), 0.75 uM BTK, […] probe 3l, 15 min preincubation
Entries and their measured inhibition at 10 µM follow.
Answer in %, number only, no unit symbol.

Examples with answers:
Molecule: O=C(O)CCC(=O)Nc1ccc(Br)cn1
inhibition at 10 µM, %: -3.4
//
Molecule: O=C(O)c1cc(N=Nc2ccc(S(=O)(=O)Nc3ccccn3)cc2)ccc1O
inhibition at 10 µM, %: 48.3
//
Molecule: COc1ccc(OC)c(C2C(C#N)=C(N)Oc3n[nH]c(-c4ccc5ccccc5c4)c32)c1 (centres unmarked)
inhibition at 10 µM, %: 1.5
//
Molecule: O=C1NC(=O)/C(=C/c2ccc3nccc(-c4ccncc4)c3c2)S1
inhibition at 10 µM, %: 14.5
//
Molecule: COc1c2c(cc3oc(CO[C@@H]4O[C@H](CO)[C@@H](O)[C@H](O)[C@H]4O)cc(=O)c13)O[C@H](C(C)(C)O)C2
inhibition at 10 µM, %: 7.7
//
Molecule: C1=Cc2ccccc2Nc2ccccc21
inhibition at 10 µM, %: 4.7
//
Molecule: Cc1cc(C(C)Nc2ccccc2)c2nc(N3CCOCC3)cc(=O)n2c1 (centres unmarked)
inhibition at 10 µM, %: 10.3
//
Molecule: CCCCCCCCOc1ccccc1C(=O)Nc1ccc(C(=O)OCC[N+](C)(CC)CC)cc1
inhibition at 10 µM, %: -64.6

Measured inhibition at 10 µM (BTK (Homo sapiens)), entry CCn1cc(-c2cccc(C(F)(F)F)c2)c2sc(C(N)=NC3CCS(=O)(=O)CC3)cc2c1=O : 2.3

Measured inhibition at 10 µM (BTK (Homo sapiens)), entry COc1cc(O)c(C(=O)c2ccccc2)cc1S(=O)(=O)O : -1.6

Measured inhibition at 10 µM (BTK (Homo sapiens)), entry CCOC(=O)c1[nH]c2cc(Cl)ccc2c1C(C(=O)NC(C)(C)C)N(C=O)Cc1ccc(Cl)cc1 (centres unmarked) : 13.1

Reference source for all entries: paper PMC8041284
